Entries annotated with measured pIC50
Biological target: JAK2 (Homo sapiens)
Construct: host or cells: baculovirus expression system
Experiment: Recombinant Human JAK2 Kinase Assay (TRF)
Format: biochemical
Conditions: JAK2 kinase inhibition, 0.2 μM ATP; read-out: JAK2 Potency
pIC50: −log10 of the molar value.

[in] Let me know recorded pIC50 for c1cc(Sc2ccc3cnc(Nc4ccc(N5CCOCC5)cc4)nn23)ccn1 [Example 1116] , thanks.
[out] > 7.00

[in] Fill in pIC50 for record COc1cc(N2CCCN(C)CC2)ccc1Nc1ncc2ccc(-c3ccccc3OC)n2n1 [Example 765]
[out] 6.00 to 7.00

[in] Tell me measured pIC50 for COc1cc(C2CCNCC2)ccc1Nc1ncc2ccc(-c3ccccc3OC)n2n1 [Example 820] please.
[out] 6.00 to 7.00

[in] Specify pIC50 for COc1cc(C2CCN(CC(=O)N(C)C)CC2)ccc1Nc1ncc2ccc(-c3ccccc3OC)n2n1 [Example 811] and stop.
[out] 6.00 to 7.00

[in] Consider the molecule CN1CCN(c2ccc(Nc3ncc4ccc(-c5ccc(C=O)cc5)n4n3)cc2)CC1 [Example 1203] . State its measured pIC50.
[out] > 7.00

[in] Give pIC50 for the following molecule: COc1ccc(-c2ccc3cnc(Nc4ccc(C5CCN(CCO)CC5)cc4)nn23)cn1 [Example 671]
[out] > 7.00

[in] Provide only the value of recorded pIC50 for COc1cc(N2CCC(N3CC[C@H](O)C3)CC2)ccc1Nc1ncc2ccc(-c3ccccc3OC)n2n1 [Example 483]
[out] 6.00 to 7.00

[in] // Input: CC(C)C(=O)Nc1cccc(Nc2ncc3ccc(-c4cnn(C)c4)n3n2)c1 [Example 963] . Output its pIC50 only.
[out] > 7.00

Continuing:
[in] Give recorded pIC50. COc1cc(N2CCCN(C3CCN(C)CC3)CC2)ccc1Nc1ncc2ccc(-c3ccccc3N(C)S(C)(=O)=O)n2n1 [Example 790]
[out] 6.00 to 7.00

----------
Biological target: ALK (Homo sapiens)
Construct: host or cells: baculovirus expression system
Sequence (Q9UM73 19-1620): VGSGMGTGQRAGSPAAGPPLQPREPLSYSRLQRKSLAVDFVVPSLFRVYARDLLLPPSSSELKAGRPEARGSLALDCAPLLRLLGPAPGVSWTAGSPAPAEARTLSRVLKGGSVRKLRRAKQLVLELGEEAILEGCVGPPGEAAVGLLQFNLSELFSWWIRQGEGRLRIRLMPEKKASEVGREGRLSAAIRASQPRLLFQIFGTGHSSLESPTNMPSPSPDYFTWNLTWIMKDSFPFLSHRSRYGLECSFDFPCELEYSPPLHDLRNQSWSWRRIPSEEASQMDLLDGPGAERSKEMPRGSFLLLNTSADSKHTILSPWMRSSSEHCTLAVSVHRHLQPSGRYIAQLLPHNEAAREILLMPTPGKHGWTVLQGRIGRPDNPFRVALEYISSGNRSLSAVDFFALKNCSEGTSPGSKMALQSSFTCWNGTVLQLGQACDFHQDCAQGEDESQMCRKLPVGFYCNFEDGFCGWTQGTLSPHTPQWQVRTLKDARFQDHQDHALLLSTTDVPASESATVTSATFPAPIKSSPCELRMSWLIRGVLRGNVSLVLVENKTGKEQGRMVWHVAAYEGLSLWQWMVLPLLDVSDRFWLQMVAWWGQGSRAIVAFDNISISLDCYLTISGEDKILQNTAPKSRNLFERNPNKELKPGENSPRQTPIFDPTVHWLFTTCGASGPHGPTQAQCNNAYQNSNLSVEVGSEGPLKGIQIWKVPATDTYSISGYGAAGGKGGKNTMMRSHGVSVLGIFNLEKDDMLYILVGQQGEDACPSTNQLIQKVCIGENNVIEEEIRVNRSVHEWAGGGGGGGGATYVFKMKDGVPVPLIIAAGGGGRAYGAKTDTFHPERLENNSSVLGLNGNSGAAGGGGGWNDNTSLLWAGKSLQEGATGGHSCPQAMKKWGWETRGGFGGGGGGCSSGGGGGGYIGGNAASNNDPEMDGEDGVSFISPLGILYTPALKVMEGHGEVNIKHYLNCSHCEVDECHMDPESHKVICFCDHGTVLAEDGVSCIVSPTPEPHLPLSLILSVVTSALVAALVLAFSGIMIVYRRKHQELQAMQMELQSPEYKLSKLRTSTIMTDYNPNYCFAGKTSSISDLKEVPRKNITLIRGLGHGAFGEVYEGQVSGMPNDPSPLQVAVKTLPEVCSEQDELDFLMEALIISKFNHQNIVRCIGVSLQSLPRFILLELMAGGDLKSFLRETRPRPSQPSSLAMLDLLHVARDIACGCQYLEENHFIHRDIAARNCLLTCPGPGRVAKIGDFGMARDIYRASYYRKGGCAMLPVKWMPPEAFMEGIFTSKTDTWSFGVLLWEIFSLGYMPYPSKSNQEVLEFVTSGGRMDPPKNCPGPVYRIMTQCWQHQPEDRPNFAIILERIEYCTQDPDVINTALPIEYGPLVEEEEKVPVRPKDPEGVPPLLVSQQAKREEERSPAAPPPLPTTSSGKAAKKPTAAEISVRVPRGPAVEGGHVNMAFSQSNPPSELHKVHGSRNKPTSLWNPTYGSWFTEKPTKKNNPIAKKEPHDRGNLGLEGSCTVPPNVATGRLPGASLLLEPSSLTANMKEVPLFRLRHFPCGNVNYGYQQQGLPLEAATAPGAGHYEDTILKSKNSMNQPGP
Assay: ALK Kinase Assay (ELISA/TRF, PLC-γ substrate)
Format: biochemical
Conditions: ALK kinase inhibition, 1 μM ATP; read-out: ALK Potency
pIC50: −log10 of the molar value.
Below, each of the compounds is paired with its reported pIC50 value.

Previously resolved entries follow.
[in] # return recorded pIC50 for entry `COc1cc(C2CCN(CC(C)(C)O)CC2)ccc1Nc1ncc2ccc(-c3ccccc3N(C)S(C)(=O)=O)n2n1`
[out] > 7.00

[in] State, in one line, measured pIC50 of CN1CCN(C)C(c2cccc(Nc3ncc4ccc(-c5cccc(S(=O)(=O)NC(C)(C)C)c5)n4n3)c2)C1=O (stereo not shown)
[out] 5.00 to 6.00

# ---- query compound ----
[in] Give a short answer stating reported pIC50 for `CN1CCN(c2ccc(Nc3ncc4ccc(-c5cn(C)cn5)n4n3)cc2)CC1` .
[out] 6.00 to 7.00

----------
Biological target: JAK2 (Homo sapiens, UniProt O60674)
Construct: host or cells: baculovirus expression system
Sequence (O60674 whole entry): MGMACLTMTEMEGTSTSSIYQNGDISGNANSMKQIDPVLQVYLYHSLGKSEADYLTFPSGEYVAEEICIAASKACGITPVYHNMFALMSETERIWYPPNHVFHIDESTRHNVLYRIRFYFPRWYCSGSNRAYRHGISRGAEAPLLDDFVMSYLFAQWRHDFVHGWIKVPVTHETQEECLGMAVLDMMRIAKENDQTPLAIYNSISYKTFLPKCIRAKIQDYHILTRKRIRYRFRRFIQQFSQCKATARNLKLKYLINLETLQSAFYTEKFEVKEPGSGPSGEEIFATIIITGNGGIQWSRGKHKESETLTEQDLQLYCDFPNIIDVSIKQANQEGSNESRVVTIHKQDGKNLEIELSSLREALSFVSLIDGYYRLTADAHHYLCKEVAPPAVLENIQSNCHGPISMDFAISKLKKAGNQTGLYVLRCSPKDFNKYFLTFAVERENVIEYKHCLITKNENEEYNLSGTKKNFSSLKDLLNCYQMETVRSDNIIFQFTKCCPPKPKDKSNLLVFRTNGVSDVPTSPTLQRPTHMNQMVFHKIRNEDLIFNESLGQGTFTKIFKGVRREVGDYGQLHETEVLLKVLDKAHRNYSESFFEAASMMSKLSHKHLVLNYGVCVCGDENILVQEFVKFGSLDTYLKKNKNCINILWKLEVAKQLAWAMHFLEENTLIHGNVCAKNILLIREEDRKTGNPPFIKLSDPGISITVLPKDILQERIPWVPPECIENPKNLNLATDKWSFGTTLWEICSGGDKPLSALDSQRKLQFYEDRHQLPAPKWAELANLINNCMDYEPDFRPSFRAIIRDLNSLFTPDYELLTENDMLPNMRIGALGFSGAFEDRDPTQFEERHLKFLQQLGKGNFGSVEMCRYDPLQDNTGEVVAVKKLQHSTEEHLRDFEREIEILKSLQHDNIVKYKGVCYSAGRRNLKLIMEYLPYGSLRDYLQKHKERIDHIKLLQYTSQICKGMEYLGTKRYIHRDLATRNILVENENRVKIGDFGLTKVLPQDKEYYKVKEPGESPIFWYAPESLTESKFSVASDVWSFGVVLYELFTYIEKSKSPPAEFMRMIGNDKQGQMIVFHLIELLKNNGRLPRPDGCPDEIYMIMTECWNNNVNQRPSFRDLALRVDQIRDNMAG
Experiment: Recombinant Human JAK2 Kinase Assay (TRF)
Type: biochemical
Details: JAK2 kinase inhibition, 0.2 μM ATP; read-out: JAK2 Potency
measured_quantity: IC50

Use these answered entries as a reference point.
[in] Supply recorded IC50 for `COc1ccc(CN2CCN(C)CC2)cc1Nc1ncc2ccc(-c3ccccc3N(C)S(C)(=O)=O)n2n1` here.
[out] 1000 to 10000 nM

[in] Please give the documented IC50 of `CN1CCN(c2cccc(Nc3ncc4ccc(-c5cccc(CCC#N)c5)n4n3)c2)CC1`
[out] < 100 nM

[in] Let me know recorded IC50 for `CCS(=O)(=O)c1cccc(-c2ccc3cnc(Nc4ccc5nc[nH]c5c4)nn23)c1` , thanks.
[out] < 100 nM

Others:
[in] Please give the documented IC50 of `CC(=O)Nc1cccc(Nc2ncc3ccc(-c4ccc[nH]4)n3n2)c1`
[out] < 100 nM

[in] Item `CS(=O)(=O)c1ccc(-c2ccc3cnc(Nc4ccc5nc(C(F)(F)F)[nH]c5c4)nn23)cc1` : provide IC50
[out] < 100 nM

[in] Tell me measured IC50 for `CC(=O)N1CC(C)(C)c2ccc(Nc3ncc4ccc(-c5cnn(C)c5)n4n3)cc21` please.
[out] < 100 nM

[in] Entry COc1cc(N2CCC(N3CCOCC3)CC2)ccc1Nc1ncc2ccc(-c3ccccc3[S+](C)[O-])n2n1 (centres unmarked) needs its IC50 filled in; supply it.
[out] 100 to 1000 nM

[in] Tell me IC50 reported for `CN1CCN(c2ccc(Nc3ncc4ccc(-c5ccc(CNCCS(C)(=O)=O)cc5)n4n3)cc2)CC1`
[out] < 100 nM

[in] Write down IC50 measured for item `COc1cc(N2CCC(N3CCCC3)CC2)ccc1Nc1ncc2ccc(-c3ccccc3OC)n2n1`
[out] 100 to 1000 nM

[in] Name the recorded IC50 of the compound listed here: `CS(=O)(=O)Nc1cccc(-c2ccc3cnc(Nc4ccc(CN5CCS(=O)(=O)CC5)cc4)nn23)c1`
[out] < 100 nM

[in] Kindly indicate its recorded IC50. Item: `COc1ccccc1-c1ccc2cnc(Nc3ccc(C4=CCN(CC(N)=O)CC4)c(C(F)(F)F)c3)nn12`
[out] < 100 nM

[in] Output IC50 of `c1c[nH]c(-c2ccc3cnc(Nc4ccc(N5CCOCC5)cc4)nn23)c1`
[out] < 100 nM

[in] Consider the compound `COc1cc(N2CCC(N3CCCC3)CC2)ccc1Nc1ncc2ccc(-c3ccccc3N(C)S(C)(=O)=O)n2n1` and give its recorded IC50.
[out] 1000 to 10000 nM

[in] Read off the recorded IC50 for `CN1CCN(c2ccc(Nc3ncc4ccc(Cc5ccccc5)n4n3)cc2)CC1`
[out] < 100 nM

[in] Look up and report measured IC50 for this entry: `COc1cc(C2CCN(Cc3ncc[nH]3)CC2)ccc1Nc1ncc2ccc(-c3ccccc3OC)n2n1`
[out] 100 to 1000 nM

[in] Indicate its recorded IC50; the compound in question is `CN1CCN(c2ccc(Nc3ncc4ccc(-c5cccc6c5OCCO6)n4n3)cc2)CC1`
[out] < 100 nM

[in] Give the reported value of IC50 for this record: CON=C1CCC(c2ccc(Nc3ncc4ccc(-c5cccc(S(=O)(=O)C(C)C)c5)n4n3)cc2)CC1 (centres unmarked)
[out] < 100 nM

----------
Target: JAK2 (Homo sapiens, UniProt O60674)
Construct: host or cells: baculovirus expression system
Assay: Recombinant Human JAK2 Kinase Assay (TRF)
Format: biochemical
Conditions: JAK2 kinase inhibition, 0.2 μM ATP; read-out: JAK2 Potency
measured_quantity: IC50

[in] Find the measured IC50 of CC(C)(C)NS(=O)(=O)c1cccc(-c2ccc3cnc(Nc4ccc5nc(CO)[nH]c5c4)nn23)c1 [Example 1066] with JAK2 (Homo sapiens, UniProt O60674) as test system.
[out] < 0.1 µM

[in] Write down measured IC50 (JAK2 (Homo sapiens, UniProt O60674)) for this compound. CN1CCN(C)C(c2cccc(Nc3ncc4ccc(-c5ccccc5N(C)S(C)(=O)=O)n4n3)c2)C1=O (stereo not drawn) [Example 1083]
[out] < 0.1 µM

Now for a further compound.
[in] Answer briefly: IC50 recorded on JAK2 (Homo sapiens, UniProt O60674) for CN1CCN(C(=O)C2CCN(c3ccc(Nc4ncc5ccc(-c6cnn(C)c6)n5n4)cc3)CC2)CC1 [Example 1188]
[out] < 0.1 µM

----------
The reader will find reported IC50 values listed item by item below.
Target: ALK (Homo sapiens)
Construct: host or cells: baculovirus expression system
Assay: ALK Kinase Assay (ELISA/TRF, PLC-γ substrate)
Type: biochemical
Conditions: ALK kinase inhibition, 1 μM ATP; read-out: ALK Potency

Example entries and their recorded answers appear below.
[in] Consider the molecule `COc1ccccc1-c1c(C)c(C)c2cnc(Nc3ccc(N4CCN(C)CC4)cc3)nn12` and give its recorded IC50.
[out] < 100 nM

[in] Supply recorded IC50 for `CC(C)(C)NS(=O)(=O)c1cccc(-c2ccc3cnc(Nc4ccc5c(c4)CN(CC(N)=O)C5)nn23)c1` here.
[out] 100 to 1000 nM

[in] Give me measured IC50, please, for this molecule: CC(C)(C)NS(=O)(=O)c1cccc(-c2ccc3cnc(Nc4ccc(C5CCC(O)CC5)cc4)nn23)c1 (stereo not shown)
[out] 100 to 1000 nM

[in] Return the recorded IC50 value; entry: `COc1cc2c(cc1Nc1ncc3ccc(-c4ccccc4OC)n3n1)CN(C(=O)CN)C2`
[out] < 100 nM

[in] Input `CCS(=O)(=O)c1cccc(-c2ccc3cnc(Nc4ccc5ncn(C)c5c4)nn23)c1` , output reported IC50.
[out] 1000 to 10000 nM

---
[in] Report measured IC50; entry is `COc1cc(C2CCN(CC(N)=O)CC2)ccc1Nc1ncc2c(C)cc(-c3ccccc3N(C)S(C)(=O)=O)n2n1`
[out] < 100 nM

[in] Write down IC50 measured for item `NC(=O)CN1CCC(c2ccc(Nc3ncc4ccc(-c5cccc(S(=O)(=O)NC6CC6)c5)n4n3)cc2)CC1`
[out] < 100 nM

[in] Return IC50 (reported value) for this molecule: `COc1ccccc1-c1ccc2cnc(Nc3cnn(CCN4CCOCC4)c3)nn12`
[out] 1000 to 10000 nM

[in] Return IC50 (reported value) for this molecule: `COc1ccc(Cl)cc1-c1ccc2cnc(Nc3ccc(C4CCN(CC(N)=O)CC4)cc3)nn12`
[out] < 100 nM
